This collection of values is drawn from PubChem BioAssay.

# measurement_description: MM1S myeloma cell viability, profiling panel, resazurin fluorescence, basal, 24 h, PK04 Diversity Set (AID 1174);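 further: MM1S multiple myeloma cell line; test concentration not given here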
# reported_conditions: higher = more signal, called active from +8 up or from −8 down
value_kind: z-score
I only need the number, thanks.

Sample records with z-score:
COc1c(C)cc(-c2cc3c(c(CCc4ccccc4)n2)[Si](C(C)C)(C(C)C)OC3)cc1C    1.93
O=C1O[C@H](c2ccccc2)[C@H](c2ccccc2)N2[C@H]1[C@@H](C(=O)Nc1nc3ccccc3s1)[C@]1(C(=O)Nc3ccc(C#CCCO)cc31)[C@H]2c1ccccc1OCCO    0.228
C=CCNC(=O)[C@@H]1[C@H]2C(=O)O[C@H](c3ccccc3)[C@H](c3ccccc3)N2[C@H](c2ccc(O)cc2)[C@@]12C(=O)Nc1ccccc12    0.634
C=C1C=C(Br)C2(OCCCO2)[C@H]2OC12 (some centres not stated)    -2.94
C=CC[C@@]1(C(=O)NCc2ccccc2)N=C(c2ccc(OCCCO)cc2)O[C@@H]1c1ccccc1    -0.47

Q: Consider the compound CCOC(=O)C[C@H]1[C@H](OC(=O)c2ccc(-c3ccccc3)cc2)[C@@H](NC(=O)C2CCCCC2)c2cc(OCCCO)ccc2N1C(=O)c1ccc2ccccc2n1 and give its measured z-score.
Result: 1.22

Q: Fill in: z-score of C=C(CCCC)/C(=C/C[C@H](OC(=O)c1ccncc1)c1ccc(CO)o1)c1cnc2ccccc2c1 is ___
Result: 0.511
